Molecular target: EGFR (human)
Doc: threshold 20 nM (exclusive). Items with IC50 beneath it return rule met; others return rule not met.

Recorded results for 3 compounds are shown here.
substance.smiles | group.label
C=C=CCCCCCOc1cc2c(Nc3ccc(F)c(Cl)c3)ncnc2cc1OC | rule met
C=C=CCCCOc1cc2c(Nc3cccc(Cl)c3)ncnc2cc1OC | rule not met
C=C=CCOc1cc2c(Nc3ccc(F)c(Cl)c3)ncnc2cc1OC | rule not met

Input: Does `C=C=CCCCCOc1cc2c(Nc3ccc(F)c(Cl)c3)ncnc2cc1OC` have IC50 strictly under 20 nM?
Output: rule not met

Input: # strict comparison: is reported IC50 < 20 nM? input = `C=C=CCOc1cc2c(Nc3cccc(Cl)c3)ncnc2cc1OC`
Output: rule met

###

Target: EGFR (human)
Settings: a431
Listed molecules paired with reported pIC50
Value format note: pIC50 is -log10 of concentration (mol/L); just state the number.

substance.smiles | pIC50
C#Cc1cccc(Nc2c([N+](=O)[O-])cnc3cc(OCc4ccccc4)c(OC)cc23)c1 | 6.31

Proceed to the following item.
Item: `COc1cc2ncc([N+](=O)[O-])c(Nc3ccc(Cl)c(F)c3)c2cc1OCc1ccccc1` | pIC50: 6.40

###

Ki for assorted compounds
Target: EGFR (human) (UniProt P00533)
Sequence (P00533 whole entry, looked up): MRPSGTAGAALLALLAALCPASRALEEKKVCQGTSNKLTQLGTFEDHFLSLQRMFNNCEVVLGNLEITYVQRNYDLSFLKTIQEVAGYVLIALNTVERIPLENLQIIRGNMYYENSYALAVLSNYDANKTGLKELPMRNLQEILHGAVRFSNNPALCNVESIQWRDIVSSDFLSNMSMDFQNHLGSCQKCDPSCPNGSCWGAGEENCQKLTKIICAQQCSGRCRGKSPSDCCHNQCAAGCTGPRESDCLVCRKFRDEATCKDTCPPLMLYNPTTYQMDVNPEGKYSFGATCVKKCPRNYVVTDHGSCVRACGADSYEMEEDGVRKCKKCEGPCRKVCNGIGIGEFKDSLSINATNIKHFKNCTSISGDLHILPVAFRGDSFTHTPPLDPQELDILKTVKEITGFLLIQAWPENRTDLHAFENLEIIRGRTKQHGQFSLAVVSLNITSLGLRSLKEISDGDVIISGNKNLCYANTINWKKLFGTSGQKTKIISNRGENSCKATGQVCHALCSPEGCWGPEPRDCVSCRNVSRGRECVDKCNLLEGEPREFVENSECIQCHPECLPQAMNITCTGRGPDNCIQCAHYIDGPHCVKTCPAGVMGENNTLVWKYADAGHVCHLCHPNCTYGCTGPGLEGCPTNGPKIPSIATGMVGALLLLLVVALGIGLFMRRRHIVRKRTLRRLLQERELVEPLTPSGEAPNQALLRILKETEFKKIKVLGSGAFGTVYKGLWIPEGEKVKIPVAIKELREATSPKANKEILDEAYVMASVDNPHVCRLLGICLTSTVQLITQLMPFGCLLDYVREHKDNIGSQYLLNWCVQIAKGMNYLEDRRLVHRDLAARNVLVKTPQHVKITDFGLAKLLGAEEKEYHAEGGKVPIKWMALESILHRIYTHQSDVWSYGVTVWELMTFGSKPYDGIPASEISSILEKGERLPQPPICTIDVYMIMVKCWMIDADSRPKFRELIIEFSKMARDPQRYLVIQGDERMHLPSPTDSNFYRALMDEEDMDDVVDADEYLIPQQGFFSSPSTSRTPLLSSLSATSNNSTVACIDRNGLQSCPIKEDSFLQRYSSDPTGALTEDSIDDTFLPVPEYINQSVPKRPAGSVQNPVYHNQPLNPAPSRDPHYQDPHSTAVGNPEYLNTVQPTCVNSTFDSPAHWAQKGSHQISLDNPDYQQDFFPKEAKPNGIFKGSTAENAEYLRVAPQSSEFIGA
Settings: a431
Report as a plain number; the unit µM is understood.

Reference set (2 entries):
substance.smiles | unit.abbreviation | Ki
N#C/C(=C\c1ccc(O)c(O)c1)C(=O)O | µM | 23.6
N#CC(C#N)=Cc1cc(O)c(O)c(O)c1 | µM | 1

Reported Ki of `N#CC(C#N)=Cc1cc(O)cc(O)c1` : 10

The recorded Ki for `N#C/C(=C\c1ccc(O)c(O)c1)C(N)=O` is 3.5

###

Molecular target: UniProt:P00533
Parameter: pIC50. Scope: all listed entries.
Kindly note that pIC50 refers to -log10 of the concentration in mol/L and answer with the value alone.

substance.smiles | measured.number
Cc1ccnc(NS(=O)(=O)c2ccc(Nc3nc(C)c4c(=O)[nH]c(Nc5ccc(S(=O)(=O)O)cc5)nc4n3)cc2)n1 | 5.09
Cc1ccnc(NS(=O)(=O)c2ccc(Nc3nc(C)c4c(=O)[nH]c(NCc5ccccc5)nc4n3)cc2)n1 | 5.18
Cc1ccnc(NS(=O)(=O)c2ccc(Nc3nc(-c4ccc(O)cc4O)c4c(=O)[nH]c(SCc5ccccc5)nc4n3)cc2)n1 | 5.26

We now examine a further molecule.
Hey, UniProt:P00533 data for `Cc1ccnc(NS(=O)(=O)c2ccc(Nc3nc(C)c4c(=O)[nH]c(SCc5ccccc5)nc4n3)cc2)n1` : pIC50 came out at 5.11

###

Target: PIK3CD (Human)
Assay: Assessment of PIK3CD Kinase Activity
experimental.readout: IC50 (nM)
State just the number; it will be interpreted in nM.

Reference set (3 entries):
molecule | IC50, nM
Nc1ncc(-c2cnc3ccc(-c4ccc(C(=O)N5CCN(Cc6ccccn6)CC5)cc4)nn23)cc1C(F)(F)F | 93
Cc1c(Cn2ccn3c(=O)cc(C4C=COCC4)nc23)cccc1C(F)(F)F (centres undefined) | 40
Nc1nc2ccc(-c3cncc(NS(=O)(=O)c4cccc5ccccc45)c3)cn2n1 | 126

In the following, a different molecule is considered.
Form: molecule = `COCCn1c(Cc2nc(N3CCOCC3)cc(=O)[nH]2)nc2ccccc21` ; IC50 = 270

###

pIC50: recorded values
Target: EGFR (human) (UniProt P00533)
Settings: hn5
Scale: negative log10 of molar concentration, which is what pIC50 denotes.

// pIC50 lookup, compound = `Oc1cc(O)c2nc(-c3ccc(O)c(O)c3)sc2c1` , result: 3.89

// pIC50 lookup, compound = `Oc1ccc(-c2nc3ccc(O)cc3s2)cc1` , result: 3.89

Data point: `Oc1ccc(-c2nc3c(O)cc(O)cc3s2)cc1` ; pIC50 = 3.52

###

Molecular target: EGFR (UniProt P00533)
Sequence (P00533 whole entry, looked up): as the sequence (P00533 whole entry, looked up) above
experimental.readout: IC50

Form field, IC50 with EGFR (UniProt P00533), item `O=C(CCCNc1ncc(C(F)(F)F)cc1Cl)NNS(=O)(=O)c1ccc(CNC(=O)c2ccc(Cl)cc2)s1` : > 10 µM

###

Parameter 'readout' = IC50; parameter 'system' = EGFR (Hamster).

// known answers, use as guide
substance.smiles | tgt | IC50
O=C(O)c1cccc(N=Cc2cc(O)ccc2O)c1 | EGFR (Hamster) | > 10 µM
COC(=O)c1cc(N=Cc2ccccc2O)ccc1O | EGFR (Hamster) | > 100 µM
COC(=O)c1cc(N=Cc2cccc(O)c2)ccc1O | EGFR (Hamster) | > 100 µM

EGFR (Hamster) assay, compound `O=C(O)c1cc(N=Cc2ccccc2O)ccc1O` , recorded IC50 = > 100 µM

The measured IC50 that `COC(=O)c1cc(N=Cc2ccc(O)cc2O)ccc1O` showed for EGFR (Hamster) is > 100 µM

Let me check: `COC(=O)c1cc(N=Cc2cc(OC)ccc2OC)ccc1O` , system EGFR (Hamster), measured IC50 is > 10 µM

Entry `COC(=O)c1cc(NCc2cc(OC)ccc2OC)ccc1O` under EGFR (Hamster) had IC50 of > 100 µM

###

# key: entry, value: IC50
Target: MAPK14 (human) (UniProt Q16539)
Sequence (Q16539 whole entry, looked up): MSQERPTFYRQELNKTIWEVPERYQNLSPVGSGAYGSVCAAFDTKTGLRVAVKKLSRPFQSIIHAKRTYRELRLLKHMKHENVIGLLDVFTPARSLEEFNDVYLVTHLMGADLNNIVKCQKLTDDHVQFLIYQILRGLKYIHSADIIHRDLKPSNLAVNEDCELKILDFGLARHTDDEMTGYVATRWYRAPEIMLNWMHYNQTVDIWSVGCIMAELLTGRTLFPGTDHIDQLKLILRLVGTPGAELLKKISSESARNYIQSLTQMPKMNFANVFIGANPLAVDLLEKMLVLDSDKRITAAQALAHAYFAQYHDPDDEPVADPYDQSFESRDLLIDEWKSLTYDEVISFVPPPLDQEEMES
Experiment: Assessment of MAPK14 Kinase Activity
Kindly answer with a numeric value in nM, unit omitted.

A selection of reference data follows.
molecule | tgt | unit.abbreviation | measured.number
Cc1cc(-c2cccc(C(=O)Nc3ccc(OCCN4CCOCC4)c4ccccc34)c2)ccc1F | MAPK14 (human) (UniProt Q16539) | nM | 488
Clc1ccc(-c2n[nH]c(N3CCC4CCCCC4C3)c2-c2ccncc2)cc1 (stereo not given) | MAPK14 (human) (UniProt Q16539) | nM | 260
CC1CCN(c2[nH]nc(-c3ccc(Cl)cc3)c2-c2ccncc2)CC1 | MAPK14 (human) (UniProt Q16539) | nM | 130

Here is another molecule to look at.
So, `Cc1c(F)cc(C(=O)NC2CC2)cc1-c1ccn2c(C(C)(C)N)nnc2c1` ? Its IC50 was 15.4

###

Biological target: PIK3CG (human) (UniProt P48736)
Sequence (P48736 whole entry, looked up): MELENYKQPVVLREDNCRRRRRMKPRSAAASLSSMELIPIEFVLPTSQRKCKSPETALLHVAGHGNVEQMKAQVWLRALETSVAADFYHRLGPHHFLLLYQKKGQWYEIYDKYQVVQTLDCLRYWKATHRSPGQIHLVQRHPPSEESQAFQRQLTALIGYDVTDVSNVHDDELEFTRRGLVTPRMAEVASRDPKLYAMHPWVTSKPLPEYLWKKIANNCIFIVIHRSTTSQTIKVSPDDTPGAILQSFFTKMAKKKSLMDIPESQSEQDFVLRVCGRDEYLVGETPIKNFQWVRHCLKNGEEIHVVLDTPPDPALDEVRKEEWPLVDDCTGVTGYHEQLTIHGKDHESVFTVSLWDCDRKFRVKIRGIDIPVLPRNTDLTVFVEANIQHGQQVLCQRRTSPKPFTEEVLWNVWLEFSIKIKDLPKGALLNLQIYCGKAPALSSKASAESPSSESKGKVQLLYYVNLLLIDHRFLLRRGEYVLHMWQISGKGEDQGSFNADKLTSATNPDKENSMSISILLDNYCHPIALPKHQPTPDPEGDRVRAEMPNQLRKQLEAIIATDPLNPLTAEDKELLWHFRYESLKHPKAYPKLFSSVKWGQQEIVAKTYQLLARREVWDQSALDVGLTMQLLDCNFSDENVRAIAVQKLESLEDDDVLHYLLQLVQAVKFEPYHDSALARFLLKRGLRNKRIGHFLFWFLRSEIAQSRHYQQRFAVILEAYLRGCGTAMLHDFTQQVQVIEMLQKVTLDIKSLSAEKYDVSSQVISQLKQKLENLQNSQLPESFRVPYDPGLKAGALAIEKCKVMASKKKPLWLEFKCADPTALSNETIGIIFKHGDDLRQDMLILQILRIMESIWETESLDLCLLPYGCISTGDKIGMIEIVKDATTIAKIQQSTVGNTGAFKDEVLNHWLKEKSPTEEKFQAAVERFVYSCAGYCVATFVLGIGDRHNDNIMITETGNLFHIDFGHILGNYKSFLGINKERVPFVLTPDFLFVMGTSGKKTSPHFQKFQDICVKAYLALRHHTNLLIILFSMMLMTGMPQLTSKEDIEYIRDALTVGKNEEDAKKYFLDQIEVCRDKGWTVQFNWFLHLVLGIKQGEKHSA
Assay: Inhibition of PIK3CG Kinase Activity
# IC50 values compiled below
Value expressed in nM; do not type the unit.

// IC50 (PIK3CG (human) (UniProt P48736)) for `CCn1c(C(=O)Nc2nnn[nH]2)c(-c2ccccc2)c2cc(OC)c(OC)cc21` = 6600

Noted IC50 for C=CCN(/C=C1/C(=O)O[C@H](COC)[C@@]2(C)C1=C(O)C(=O)C1=C2[C@H](OC(C)=O)C[C@]2(C)C(O)CC[C@H]12)CC=C (stereo partly drawn) , tested on PIK3CG (human) (UniProt P48736): 148

###

Biological target: EGFR (UniProt P00533)
experimental.readout: IC50 (µM)
Write the value in µM as a bare number.

The reported IC50 of the compound `COc1ccc(C#CC(C)(C)O)cc1-c1n[nH]c2nc(Nc3ccc(F)cc3F)ncc12` was 5.2

###

Biological target: EGFR (human) (UniProt P00533)
Details: a431
experimental.readout: pIC50
Hey, just a heads up that pIC50 is the negative log base 10 of the concentration in molar.

get_value(item= `CCOc1cc2ncc(C#N)c(Nc3ccc(OCc4ccccn4)c(Cl)c3)c2cc1NC(=O)/C=C/CNC` , readout=pIC50) returns 7.17

###

Molecular target: CDK2 (UniProt P24941)
Test: Enzyme Assay
Conditions: concentration not given here
Entries and their inhibition values follow.
Could you kindly put the unit after your number?

Entry `O=C(Nc1cccc(Oc2ccc3c(/C=C/c4ccccc4)n[nH]c3c2)c1)c1ccccc1` — recorded inhibition = 0%

So for Nc1nc(N)c(N)c(OCC2CC=CCC2)n1 (configuration not stated) , the logged inhibition turned out to be 8%

// inhibition lookup, molecule = `O=C(Nc1cccc(C(=O)c2ccc3c(/C=C/c4ccccc4)n[nH]c3c2)c1)c1ccccc1` , result: 0%

Reported inhibition for `CC(=O)Nc1ccc(COc2cccc(C(=O)Nc3ccc4nc(C)ccc4c3)c2)cn1` was 18%

Per the records, this molecule ( `Cc1c(C(=O)c2sc(Nc3ccc(N4CCOCC4)cc3)nc2N)ncn1C` ) has inhibition equal to 0%

Recorded inhibition (molecule `CCN(CC)c1ccc(Nc2nc(N)c(C(=O)c3ccc([N+](=O)[O-])cc3)s2)cc1` ): 0%

Recorded result, `CN(c1cccc(NC(=O)c2ccccc2)c1)c1ccc2c(/C=C/c3ccc4c(c3)OCO4)n[nH]c2c1` , inhibition: 0%

###

Biological target: ROCK2 (human)
Assay: Inhibition of ROCK2 Kinase Activity
experimental.readout: Ki (nM)
Kindly provide the numeric value in nM only, without the unit symbol.

The compound `c1c[nH]c(CN2CCC[C@@H](Nc3ccc4[nH]ncc4c3)C2)n1` on ROCK2 (human): Ki was 1.3

Record `C[C@@H](N)[C@]1(C)CC[C@@H](C(=O)Nc2ccncc2)CC1` / ROCK2 (human), Ki recorded as 300

Considering `c1cc2ccc(CN3CCC[C@@H](Nc4ccc5[nH]ncc5c4)C3)cc2[nH]1` , its Ki with ROCK2 (human) was recorded as 6.3
